Taken from the supplement of paper PMC10883282.

Tested on: HT1080
Assay: relative viability vs DMSO control (72 h) (fraction); higher = more viable cells
Details: 0.00017 µM
assayEndpoint: relative viability
Answer with a bare number; do not write a unit.

What relative viability value was documented for this compound, CC1(COc2ccc3c(c2)ncn3-c2ccc3cccc(N4CCC(N)CC4)c3n2)COC1 [Crenolanib] ?
1.01

What relative viability value was documented for this compound, CC(C)(O)CNc1nc(Nc2ccnc(C(F)(F)F)c2)nc(-c2cccc(C(F)(F)F)n2)n1 [Enasidenib] ?
1.07

What relative viability value was documented for this compound, CCc1cnn2c(NCc3ccc[n+]([O-])c3)cc(N3CCCC[C@H]3CCO)nc12 [Dinaciclib] ?
1.04

What relative viability value was documented for this compound, COc1cc(CCc2cc(NC(=O)c3ccc(N4CC(C)NC(C)C4)cc3)n[nH]2)cc(OC)c1 (configuration not stated) [AZD-4547] ?
1.09

What relative viability value was documented for this compound, CC(C)NC[C@@H](C(=O)N1CCN(c2ncnc3c2[C@H](C)C[C@H]3O)CC1)c1ccc(Cl)cc1 [Ipatasertib] ?
1.1

What relative viability value was documented for this compound, Cn1cc(C2=C(c3cn(C4CCN(Cc5ccccn5)CC4)c4ccccc34)C(=O)NC2=O)c2ccccc21 [Enzastaurin] ?
1.14

What relative viability value was documented for this compound, CN1CC[C@@H](NC(=O)Nc2ccc(C#N)cc2)C[C@@H]1c1nc2ccccc2[nH]1 [Glasdegib] ?
1.07
